biological target: T1, D2; experiment: matrix of binding to LILRB4 domain-Fc fusions (FIG. 47); ELISA per paragraph 433
T1 construct: also called LILRB4 D2-hIgG1-Fc; second Ig-like domain of LILRB4 as Fc fusion
T1 sequence (fusion chain, as listed by the source): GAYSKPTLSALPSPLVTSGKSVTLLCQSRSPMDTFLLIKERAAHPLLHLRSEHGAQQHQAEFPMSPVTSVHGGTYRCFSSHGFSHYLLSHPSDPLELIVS
ENDPOINT: binding result

Q: Indicate its recorded binding result; the binder in question is anti-LILRB4 rabbit monoclonal antibody #216-2 (antibody, V domains shown) VH: EQSLKESGGRLVTPGTPLTLTCTVSGIDLSSYAMTWVRQVPGKGLEYIGFINIVGIAGYATWAKGRFTISKTSTTVDLKVTSPTTEDTATYFCARNWIRLDLWGQGTLVTVSS VL: ELVMTQTPASVSAAVGGTVTISCQSSESLYKKNYLSWFQQKPGQPPKLLIYEASKLASGVPSRFSGSGSGTQFTLTISDVQCDDAASYYCLGDYTNGRDTTFGGGTEVEIK
Result: no binding

Q: Indicate its recorded binding result; the binder in question is anti-LILRB4 rabbit monoclonal antibody #139 (antibody, V domains shown) VH: EQSLEESGGRLVTPGTPLTLTCTVSGFSLNSYAMAWVRQAPGKGLEWIGIIGLSTMTYYASWVNGRFTISKTSTTVDLKMTSLTTEDTATYFCVRNDVYWAFNLWGQGTLVTVSS VL: ELDLTQTPSSVSAGVGGTVSISCQSSESVVNNHALSWYQQKPGQPPKLLIYKASTLASGVPSRFSGSGSGAQFTLTISGVQCDDAATYYCQGGFYSGISDYPFGGGTEVEIK
Result: binds

Q: Indicate its recorded binding result; the binder in question is anti-LILRB4 rabbit monoclonal antibody #8 (antibody, V domains shown, also called mAb 8) VH: QSVKESGGGLVTPGGTLTLTCTASGFSLISYDMYWVRQAPGKGLEYIGIIYSDGYTFYATGAKGRITISRTSTTVDLKITSPTTEDTATYFCATNAFALWGQGTLVTISS VL: ELDLTQTPSSVSAAVGGTVTISCQSSQNVYNNNWLVWLQQKPGQPPKRLIYTASSLASGVPSRFAGSGSATQFTLTISDLECGDAATYYCAGGYSGPIYTFGGGTEVEIK
Result: no binding
